The origin of these recorded values is paper PMC11554998.

Recorded IC50 by entry
Molecular target: P2Y6 receptor (hP2Y6R) (Homo sapiens, UniProt Q15077)
Construct: gene P2RY6
Sequence (Q15077 whole entry): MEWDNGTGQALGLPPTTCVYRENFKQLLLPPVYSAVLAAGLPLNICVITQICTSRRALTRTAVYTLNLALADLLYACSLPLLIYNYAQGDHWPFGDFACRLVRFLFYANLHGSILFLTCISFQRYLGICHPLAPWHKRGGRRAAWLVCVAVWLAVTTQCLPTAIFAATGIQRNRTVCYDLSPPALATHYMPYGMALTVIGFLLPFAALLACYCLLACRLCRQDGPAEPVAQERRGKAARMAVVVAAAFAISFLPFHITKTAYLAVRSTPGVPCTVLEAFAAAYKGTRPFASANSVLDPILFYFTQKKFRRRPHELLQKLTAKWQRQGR
Assay: FLIPR calcium mobilization, inhibition of UDP ([…]) response in […]1-hP2Y6R cells
Format: cell-based
Details: read-out: P2Y6R, mean IC50 ± SEM (μM) or % inhibition at 400 μM^a
Give just the numeric value; µM need not be written.

COc1cccc([C@@H](Oc2ccc3c(cnn3-c3ccc(F)cc3)c2)[C@H](C)NC(=O)C(F)(F)F)c1: 574

# context switch: different compound, same IC50
# input Entry under review: CCNC(=O)c1cc2c(-c3cc(C(C)(C)O)ccc3Oc3c(C)cc(F)cc3C)cn(C)c(=O)c2[nH]1 . Reported IC50?
# output 75.7
